B1: TPR 5TU (parent)
chain: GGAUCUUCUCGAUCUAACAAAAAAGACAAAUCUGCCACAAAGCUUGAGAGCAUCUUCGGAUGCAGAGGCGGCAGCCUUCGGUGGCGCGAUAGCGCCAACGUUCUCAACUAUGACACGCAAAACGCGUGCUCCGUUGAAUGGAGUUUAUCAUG

Variants of: B1
measurement_notes: polymerase ribozyme fitness, log enrichment relative to wild type (log ratio); higher = more active; in vitro selection for triplet polymerase activity
Variants at the floor of the assay were thinned out.
Entries and their polymerase ribozyme fitness (log ratio) values follow.
Reply briefly: the number, and no unit.

Query :: Entry U6G C87G has what polymerase ribozyme fitness (log ratio)?
Result :: -3.6

Query :: Entry G59U U139C has what polymerase ribozyme fitness (log ratio)?
Result :: -3.8

Query :: Entry A22U U61A C96U has what polymerase ribozyme fitness (log ratio)?
Result :: -0.569
